The following substances are listed with their measured Bilirubin values.
# EXPERIMENT NOTES: Liver function, ALT, AST, bilirubin in cynomolgus monkeys (Example 45)
# Assay type: in vivo
# EXPERIMENTAL CONTEXT: plasma; day 64; escalating dose regimen

SUBSTANCE | Bilirubin, mg/dL
ISIS 416858: MOE gapmer, nucleobases 1275 to 1318 of SEQ ID NO: 1 (Table 8) (antisense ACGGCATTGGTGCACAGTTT; MOE gapmer, wing and gap sizes not given here) | 0.12
ISIS 416864: MOE gapmer, nucleobases 1275 to 1318 of SEQ ID NO: 1 (Table 8) (antisense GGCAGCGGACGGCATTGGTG; MOE gapmer, wing and gap sizes not given here) | 0.16
ISIS 417002: MOE gapmer, nucleobases 1275 to 1318 of SEQ ID NO: 1 (Table 8) (antisense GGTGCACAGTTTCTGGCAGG; MOE gapmer, wing and gap sizes not given here) | 0.14

====

The following substances are listed with their measured ALT values.
# EXPERIMENT NOTES: Tolerability in CD1 mice: liver function, ALT, AST, bilirubin, albumin (Example 33)
# EXPERIMENTAL CONTEXT: plasma, 50 mg/kg s.c. twice a week, 4 weeks

SUBSTANCE | MEASUREMENT UNITS | ALT
ISIS 417002: MOE gapmer, nucleobases 1275 to 1318 of SEQ ID NO: 1 (Table 8) (antisense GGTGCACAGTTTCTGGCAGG; MOE gapmer, wing and gap sizes not given here) | IU/L | 138
ISIS 416838: MOE gapmer, nucleobases 1018 to 1042 of SEQ ID NO: 1 (Table 6) (antisense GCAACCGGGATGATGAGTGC; MOE gapmer, wing and gap sizes not given here) | IU/L | 41
ISIS 416850: MOE gapmer, nucleobases 1275 to 1318 of SEQ ID NO: 1 (Table 8) (antisense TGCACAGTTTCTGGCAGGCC; MOE gapmer, wing and gap sizes not given here) | IU/L | 58

====

The following substances are listed with their measured hemoglobin content values.
# EXPERIMENT NOTES: Hematology assays in cynomolgus monkeys (Example 46)
# Format: in vivo
# EXPERIMENTAL CONTEXT: Day 55
# Method: Groups, each consisting of two male and two female monkeys, were injected subcutaneously with 25 mg/kg of ISIS 416850, ISIS 449709, ISIS 445522, ISIS 449710, ISIS 449707, ISIS 449711, ISIS 449708, 416858, and ISIS 445531. […] Body weights were taken 14 days and 7 days before the start of treatment and were then measured weekly throughout the treatment period. […]
Strand notation (5' to 3'): a small letter for the sugar, then the base; units joined by * are phosphorothioate-linked, units joined directly phosphodiester-linked; [ ] holds rarer units or linkages, { } end groups; capitals alone tell only the bases. e = 2'-O-(2-methoxyethyl) (MOE); [5mC] = 5-methylcytosine; d = 2'-deoxy (DNA)
READOUT TYPE: hemoglobin content (g/dL)

SUBSTANCE | READOUT TYPE | MEASUREMENT UNITS | RECORDED VALUE
ISIS 449708: 3-8-3, 4-8-4, 2-10-2, 3-10-3 or 4-10-4 MOE microwalk gapmer (Table 46) (antisense eA*e[5mC]*eA*dG*dT*dT*dT*d[5mC]*dT*dG*dG*e[5mC]*eA*eG) | hemoglobin content | g/dL | 13.0
ISIS 445531: 5-8-5 or 6-8-6 MOE microwalk gapmer (Table 44) (antisense eG*eG*e[5mC]*eA*eT*dT*dG*dG*dT*dG*d[5mC]*dA*d[5mC]*eA*eG*eT*eT*eT) | hemoglobin content | g/dL | 12.1
ISIS 449707: 3-8-3, 4-8-4, 2-10-2, 3-10-3 or 4-10-4 MOE microwalk gapmer (Table 46) (antisense e[5mC]*eA*e[5mC]*eA*dG*dT*dT*dT*d[5mC]*dT*dG*dG*e[5mC]*eA*eG*eG) | hemoglobin content | g/dL | 12.6
ISIS 416850: MOE gapmer, nucleobases 1275 to 1318 of SEQ ID NO: 1 (Table 8) (antisense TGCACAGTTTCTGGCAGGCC; MOE gapmer, wing and gap sizes not given here) | hemoglobin content | g/dL | 12.7

====

The following substances are listed with their measured Inhibition of Factor 11 protein relative to the PBS control (percentage reduction) values.
# Tested on: Factor 11 protein
# EXPERIMENT NOTES: Factor 11 protein in monkey plasma by sandwich ELISA (Example 46)
# Assay type: in vivo, cynomolgus monkeys
# EXPERIMENTAL CONTEXT: Day 38, plasma, 25 mg/kg subcutaneously
Strand notation (5' to 3'): a small letter for the sugar, then the base; units joined by * are phosphorothioate-linked, units joined directly phosphodiester-linked; [ ] holds rarer units or linkages, { } end groups; capitals alone tell only the bases. e = 2'-O-(2-methoxyethyl) (MOE); [5mC] = 5-methylcytosine; d = 2'-deoxy (DNA)
READOUT TYPE: Inhibition of Factor 11 protein relative to the PBS control (percentage reduction) (%)

SUBSTANCE | RECORDED VALUE
449711 (antisense eA*e[5mC]*dA*dG*dT*dT*dT*d[5mC]*dT*dG*dG*d[5mC]*eA*eG) [compound 449711] | 2
416850 (antisense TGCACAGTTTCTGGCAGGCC; 5-10-5 gapmer, further chemistry not given here) [compound 416850] | 51
416858 (antisense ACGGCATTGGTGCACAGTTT; 5-10-5 gapmer, further chemistry not given here) [compound 416858] | 74

====

# EXPERIMENTAL CONTEXT: mouse, in vivo, sc, 50 mg/kg
e = 2'-O-(2-methoxyethyl) (MOE); d = 2'-deoxy (DNA)
The following substances are listed with their measured hemoglobin values.

SUBSTANCE | hemoglobin
ISIS 413482: 5-10-5 MOE gapmer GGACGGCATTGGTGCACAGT (sugars from the 5' end e5 d10 e5, backbone and methylation of C not given here) | 15 g/dL
ISIS 416865: MOE gapmer, nucleobases 1275 to 1318 of SEQ ID NO: 1 (Table 8) (antisense TGGCAGCGGACGGCATTGGT; MOE gapmer, wing and gap sizes not given here) | 14 g/dL
ISIS 416859: MOE gapmer, nucleobases 1275 to 1318 of SEQ ID NO: 1 (Table 8) (antisense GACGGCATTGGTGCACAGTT; MOE gapmer, wing and gap sizes not given here) | 15 g/dL
ISIS 413481: 5-10-5 MOE gapmer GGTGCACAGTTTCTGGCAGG (sugars from the 5' end e5 d10 e5, backbone and methylation of C not given here) | 13 g/dL
ISIS 412224: 5-10-5 MOE gapmer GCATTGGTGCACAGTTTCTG (sugars from the 5' end e5 d10 e5, backbone and methylation of C not given here) | 15 g/dL
ISIS 416863: MOE gapmer, nucleobases 1275 to 1318 of SEQ ID NO: 1 (Table 8) (antisense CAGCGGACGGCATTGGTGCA; MOE gapmer, wing and gap sizes not given here) | 14 g/dL
ISIS 416858: MOE gapmer, nucleobases 1275 to 1318 of SEQ ID NO: 1 (Table 8) (antisense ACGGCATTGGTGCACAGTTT; MOE gapmer, wing and gap sizes not given here) | 14 g/dL
ISIS 416852: MOE gapmer, nucleobases 1275 to 1318 of SEQ ID NO: 1 (Table 8) (antisense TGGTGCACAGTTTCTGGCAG; MOE gapmer, wing and gap sizes not given here) | 14 g/dL
ISIS 416857: MOE gapmer, nucleobases 1275 to 1318 of SEQ ID NO: 1 (Table 8) (antisense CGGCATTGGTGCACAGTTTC; MOE gapmer, wing and gap sizes not given here) | 15 g/dL

====

# EXPERIMENT NOTES: Hematology assays in cynomolgus monkeys (Example 45)
# Type: in vivo
# EXPERIMENTAL CONTEXT: day −14; escalating dose regimen
The following substances are listed with their measured MCH values.

SUBSTANCE | MCH, pg
ISIS 416858: MOE gapmer, nucleobases 1275 to 1318 of SEQ ID NO: 1 (Table 8) (antisense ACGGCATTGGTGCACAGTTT; MOE gapmer, wing and gap sizes not given here) | 24
ISIS 416838: MOE gapmer, nucleobases 1018 to 1042 of SEQ ID NO: 1 (Table 6) (antisense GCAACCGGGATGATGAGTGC; MOE gapmer, wing and gap sizes not given here) | 23
ISIS 416864: MOE gapmer, nucleobases 1275 to 1318 of SEQ ID NO: 1 (Table 8) (antisense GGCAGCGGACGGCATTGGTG; MOE gapmer, wing and gap sizes not given here) | 23
ISIS 417002: MOE gapmer, nucleobases 1275 to 1318 of SEQ ID NO: 1 (Table 8) (antisense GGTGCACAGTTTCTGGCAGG; MOE gapmer, wing and gap sizes not given here) | 24
ISIS 416850: MOE gapmer, nucleobases 1275 to 1318 of SEQ ID NO: 1 (Table 8) (antisense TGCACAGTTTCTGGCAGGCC; MOE gapmer, wing and gap sizes not given here) | 23

Source listed as patent US20230263822A1.
